Data origin: ChEMBL document CHEMBL4371071

Molecular target: Muscarinic acetylcholine receptor M3 (Homo sapiens);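 note: radioligand displacement of [3H]NMS from CHO cell membranes carrying human M3 receptor, 1–2 h incubation, counted by liquid scintillation, expressed relative to control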
Sequence (P20309 whole entry, looked up): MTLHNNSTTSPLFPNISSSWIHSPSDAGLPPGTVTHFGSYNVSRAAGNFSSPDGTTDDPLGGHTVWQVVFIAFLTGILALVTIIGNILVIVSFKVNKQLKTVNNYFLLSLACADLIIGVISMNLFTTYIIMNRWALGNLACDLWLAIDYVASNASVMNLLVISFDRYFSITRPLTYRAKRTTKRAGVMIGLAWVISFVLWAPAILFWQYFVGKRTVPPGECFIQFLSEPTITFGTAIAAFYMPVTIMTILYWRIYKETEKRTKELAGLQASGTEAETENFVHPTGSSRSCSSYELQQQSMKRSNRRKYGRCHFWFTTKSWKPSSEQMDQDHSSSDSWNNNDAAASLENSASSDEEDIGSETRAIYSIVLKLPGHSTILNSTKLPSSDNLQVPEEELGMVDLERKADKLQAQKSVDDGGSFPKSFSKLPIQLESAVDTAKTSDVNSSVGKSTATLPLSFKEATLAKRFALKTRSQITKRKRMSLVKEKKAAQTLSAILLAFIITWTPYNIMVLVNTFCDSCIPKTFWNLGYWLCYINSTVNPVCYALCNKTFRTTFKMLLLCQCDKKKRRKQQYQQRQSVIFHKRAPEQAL
Settings: CHO, at 100 µM
Measured Imax of individual entries

{"compound": "COc1ccc(CCN(C(=O)OC2CN3CCC2CC3)c2ccccc2)cc1 (racemic)", "Imax [%]": 99.9}
{"compound": "O=C(OCCCc1ccccc1)N(c1ccccc1)C1CN2CCC1CC2 (configuration not stated)", "Imax [%]": 98.9}
{"compound": "COc1ccc(CCN(C(=O)OC2CCN(C)CC2)c2ccccc2)cc1", "Imax [%]": 99.7}
{"compound": "O=C(OCCc1ccc2c(c1)OCO2)N(c1ccccc1)C1CN2CCC1CC2 (configuration not stated)", "Imax [%]": 98}
{"compound": "O=C(OCc1ccc2c(c1)OCO2)N(c1ccccc1)C1CN2CCC1CC2 (configuration not stated)", "Imax [%]": 99.9}
{"compound": "COc1ccc(CCN(C(=O)OC2C[C@H]3CC[C@H](C2)N3C)c2ccccc2)cc1OC (some centres not stated)", "Imax [%]": 88.8}
{"compound": "CN1CCC(OC(=O)N(CCc2ccc(F)cc2)c2ccccc2)CC1", "Imax [%]": 100}
{"compound": "O=C(OCCCc1ccc(F)c(F)c1)N(c1ccccc1)C1CN2CCC1CC2 (configuration not stated)", "Imax [%]": 99.5}
{"compound": "O=C(OCc1ccc(Cl)c(Cl)c1)N(c1ccccc1)C1CN2CCC1CC2 (configuration not stated)", "Imax [%]": 95.8}
{"compound": "COc1ccc(CCN(C(=O)OC2CCCN(C)C2)c2ccccc2)cc1 (configuration not stated)", "Imax [%]": 96.2}
{"compound": "COc1ccc(COC(=O)N(c2ccccc2)C2CN3CCC2CC3)cc1F (configuration not stated)", "Imax [%]": 100}
{"compound": "COc1ccc(CCN(C(=O)OC2CN3CCC2CC3)c2ccccc2)cc1OC (racemic)", "Imax [%]": 99.7}
{"compound": "COc1ccc(CCCOC(=O)N(c2ccccc2)C2CN3CCC2CC3)cc1 (configuration not stated)", "Imax [%]": 96.8}
{"compound": "COc1ccc(CCN(C(=O)OC2CCN(C)CC2)c2ccccc2)cc1OC", "Imax [%]": 96.6}
{"compound": "COc1ccc(CCOC(=O)N(c2ccccc2)C2CN3CCC2CC3)cc1 (configuration not stated)", "Imax [%]": 99.3}
{"compound": "COc1ccc(CCN(C(=O)OC2C[C@H]3CC[C@H](C2)N3C)c2ccccc2)cc1 (some centres not stated)", "Imax [%]": 98.9}
{"compound": "O=C(OC1CN2CCC1CC2)N(CCc1ccc(F)cc1)c1ccccc1 (racemic)", "Imax [%]": 100}
{"compound": "O=C(OCCc1ccc(Cl)c(Cl)c1)N(c1ccccc1)C1CN2CCC1CC2 (configuration not stated)", "Imax [%]": 99.8}
{"compound": "COc1ccc(CCCOC(=O)N(c2ccccc2)C2CN3CCC2CC3)cc1OC (configuration not stated)", "Imax [%]": 96.3}
{"compound": "COc1ccc(CCN(C(=O)OC2CCCN(C)C2)c2ccccc2)cc1OC (configuration not stated)", "Imax [%]": 85.6}
{"compound": "Cc1ccc(CCCOC(=O)N(c2ccccc2)C2CN3CCC2CC3)cc1F (configuration not stated)", "Imax [%]": 100}
{"compound": "COc1ccc(COC(=O)N(c2ccccc2)C2CN3CCC2CC3)cc1 (configuration not stated)", "Imax [%]": 95.7}
